- Tested on: Lung
- EXPERIMENTAL_DETAILS: Biodistribution in NMRI mouse lung at 3.7 MBq/mL, iv after 2 mins by gamma counting
- Assay type: ADME, organism-based
- APPLIED_CONDITIONS: in vivo
ASSAY_ENDPOINT: Drug uptake (%)
Give bare numbers, in %.

{"SMILES_REPRESENTATION": "CN(C)c1ccc2nc(-c3ccc([18F])cc3)sc2c1", "ASSAY_ENDPOINT": "Drug uptake", "NUMBER": 2.2}

For each of the items listed, what is its Drug uptake?
1. Nc1ccc2nc(-c3ccc([18F])cc3)sc2c1
2. CNc1ccc2nc(-c3ccc([18F])cc3)sc2c1
3. Cc1ccc2nc(-c3ccc([18F])cc3)sc2c1
4. [11CH3]Nc1ccc(-c2nc3ccc(O)cc3s2)cc1

2
1.8
3.6
0.9

###

- EXPERIMENTAL_DETAILS: Biodistribution in NMRI mouse cerebrum at 3.7 MBq/mL, iv after 2 mins by gamma counting
- Format: ADME, organism-based
- APPLIED_CONDITIONS: in vivo
ASSAY_ENDPOINT: Drug uptake (%)
Numbers only, in %.

Take a look at these entries with their results.
{"SMILES_REPRESENTATION": "CNc1ccc2nc(-c3ccc([18F])cc3)sc2c1", "QUANTITY_UNIT": "%", "NUMBER": 3.42}
{"SMILES_REPRESENTATION": "Nc1ccc2nc(-c3ccc([18F])cc3)sc2c1", "QUANTITY_UNIT": "%", "NUMBER": 4.56}
{"SMILES_REPRESENTATION": "CN(C)c1ccc2nc(-c3ccc([18F])cc3)sc2c1", "QUANTITY_UNIT": "%", "NUMBER": 2.95}
{"SMILES_REPRESENTATION": "[11CH3]Nc1ccc(-c2nc3ccc(O)cc3s2)cc1", "QUANTITY_UNIT": "%", "NUMBER": 1.08}

Then there is this compound:
get_value(item= "Cc1ccc2nc(-c3ccc([18F])cc3)sc2c1" , readout=Drug uptake) returns 1.62

###

Give measured SUV for each item. Keep answers brief.
- Tested on: Liver
- EXPERIMENTAL_DETAILS: Drug level in NMRI mouse liver assessed as standard uptake value at 3.7 MBq/mL, iv after 2 mins by gamma counting
- Type: ADME, organism-based
- APPLIED_CONDITIONS: in vivo

Take a look at these entries with their results.
{"SMILES_REPRESENTATION": "CNc1ccc2nc(-c3ccc([18F])cc3)sc2c1", "SUV": 7}
{"SMILES_REPRESENTATION": "[11CH3]Nc1ccc(-c2nc3ccc(O)cc3s2)cc1", "SUV": 2.9}
{"SMILES_REPRESENTATION": "Cc1ccc2nc(-c3ccc([18F])cc3)sc2c1", "SUV": 4.5}
{"SMILES_REPRESENTATION": "CN(C)c1ccc2nc(-c3ccc([18F])cc3)sc2c1", "SUV": 6.8}

Then there is this compound:
get_value(item= "Nc1ccc2nc(-c3ccc([18F])cc3)sc2c1" , readout=SUV) returns 6.4

###

- Tested on: Lung
- EXPERIMENTAL_DETAILS: Drug level in NMRI mouse lung assessed as standard uptake value at 3.7 MBq/mL, iv after 2 mins by gamma counting
- Assay type: ADME, organism-based
- APPLIED_CONDITIONS: in vivo
ASSAY_ENDPOINT: SUV

{"COMPOUND": "Cc1ccc2nc(-c3ccc([18F])cc3)sc2c1", "ASSAY_ENDPOINT": "SUV", "RESULT": 5.3}
{"COMPOUND": "CNc1ccc2nc(-c3ccc([18F])cc3)sc2c1", "ASSAY_ENDPOINT": "SUV", "RESULT": 2.5}
{"COMPOUND": "[11CH3]Nc1ccc(-c2nc3ccc(O)cc3s2)cc1 [PITTSBURGH COMPOUND B]", "ASSAY_ENDPOINT": "SUV", "RESULT": 1.3}

For each of the items listed, what is its SUV?
1. CN(C)c1ccc2nc(-c3ccc([18F])cc3)sc2c1
2. Nc1ccc2nc(-c3ccc([18F])cc3)sc2c1

[2.9, 2.8]
